Molecular target: fibrin (in vitro human plasma clot) (Homo sapiens, UniProt P02671+P02675+P02679)
Construct: about 400 μl of human plasma containing the radiolabelled substrate; from tissue; host or cells: human plasma, clotted in vitro with added thrombin and calcium chloride
Sequence (P02671 20-644 isoform P02671-2 limits assumed): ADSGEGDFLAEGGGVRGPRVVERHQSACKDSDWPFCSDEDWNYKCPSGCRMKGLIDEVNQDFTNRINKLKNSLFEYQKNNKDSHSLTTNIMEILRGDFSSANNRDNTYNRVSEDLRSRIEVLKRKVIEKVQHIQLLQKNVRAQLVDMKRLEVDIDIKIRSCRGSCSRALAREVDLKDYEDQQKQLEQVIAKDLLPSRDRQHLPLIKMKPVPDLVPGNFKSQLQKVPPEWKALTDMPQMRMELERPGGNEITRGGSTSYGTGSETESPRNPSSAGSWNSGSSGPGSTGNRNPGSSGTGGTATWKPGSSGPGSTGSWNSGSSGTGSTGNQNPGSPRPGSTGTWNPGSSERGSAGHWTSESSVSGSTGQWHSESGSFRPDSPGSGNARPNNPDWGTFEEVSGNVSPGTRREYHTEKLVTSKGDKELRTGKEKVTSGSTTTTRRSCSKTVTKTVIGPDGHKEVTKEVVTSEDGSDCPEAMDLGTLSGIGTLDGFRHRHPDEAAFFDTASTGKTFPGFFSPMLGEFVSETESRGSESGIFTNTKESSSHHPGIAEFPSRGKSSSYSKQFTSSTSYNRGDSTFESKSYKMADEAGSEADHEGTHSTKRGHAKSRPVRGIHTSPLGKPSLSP
Sequence (P02675 45-491 limits assumed): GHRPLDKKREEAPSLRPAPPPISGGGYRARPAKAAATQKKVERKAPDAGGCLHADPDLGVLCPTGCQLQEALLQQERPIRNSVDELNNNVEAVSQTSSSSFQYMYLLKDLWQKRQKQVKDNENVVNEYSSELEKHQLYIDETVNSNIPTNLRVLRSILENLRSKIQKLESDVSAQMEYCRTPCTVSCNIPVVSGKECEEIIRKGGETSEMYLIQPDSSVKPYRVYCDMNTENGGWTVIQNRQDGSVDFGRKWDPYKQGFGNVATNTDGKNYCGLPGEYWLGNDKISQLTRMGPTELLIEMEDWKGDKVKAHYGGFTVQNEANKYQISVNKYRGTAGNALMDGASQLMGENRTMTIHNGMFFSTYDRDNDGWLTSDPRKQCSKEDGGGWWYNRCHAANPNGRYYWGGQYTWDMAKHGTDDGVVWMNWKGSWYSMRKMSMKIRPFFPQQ
Sequence (P02679 27-437 isoform P02679-2 limits assumed): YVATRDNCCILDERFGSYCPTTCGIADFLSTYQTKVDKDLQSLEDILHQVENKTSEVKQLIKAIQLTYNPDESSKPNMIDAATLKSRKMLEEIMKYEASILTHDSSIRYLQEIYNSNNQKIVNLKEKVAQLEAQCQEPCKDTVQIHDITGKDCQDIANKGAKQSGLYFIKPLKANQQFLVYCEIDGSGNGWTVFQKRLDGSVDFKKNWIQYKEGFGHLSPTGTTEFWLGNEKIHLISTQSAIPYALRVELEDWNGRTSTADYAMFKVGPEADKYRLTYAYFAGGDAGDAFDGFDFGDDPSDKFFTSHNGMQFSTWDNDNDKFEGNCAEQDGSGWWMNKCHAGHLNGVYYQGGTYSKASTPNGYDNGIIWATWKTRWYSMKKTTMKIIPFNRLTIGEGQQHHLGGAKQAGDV
Test: Incorporation into human plasma clots in vitro
Assay type: biochemical
Conditions: % retained (with thrombin) - % retained (no thrombin)
*1 amine or outer side, *2 acyl side, *3 side chain or, on linkers, in order; H or OH if unused. The star is where a group is joined. Adamantane1carbonyl = O=C(C12CC3CC(CC(C3)C1)C2)*; Fmoc = O=C(OCC1c2ccccc2-c2ccccc21)*; Glutaryl = O=C(CCCC(=O)[*:2])[*:1]; code Z = not defined here
I'd appreciate it if you could label each record using % specific uptake and these ranges: bottom = under 20%, middle = from 20% up to 60%, top = 60% and over

- Ac-NQEAVSPYTLLKG-Pn216 (also: 99mTc complex) [^99mTc-Cmpd 13]: middle
- NQEQVSPYTLLK [^123I-Cmpd 1, reference compound]: bottom
- Ac-N—CH2NH2-QEQVSP(D-Y)TLL(D-K)G-Pn216 [^99mTc-Cmpd 34]: bottom
- Ac-NQEQVSPYTLL(D-K)G-Pn216 [^99mTc-Cmpd 28]: middle
- Ac-NQEQVSP(D-Y)TLL(D-K)G-Pn216 [^99mTc-Cmpd 29]: middle
- Ac-NQEQVSPYTLLKG-Pn216 (also: 99mTc complex) [^99mTc-Cmpd 5]: middle
- Ac-GQDPVKG-Pn216 (also: 99mTc complex) [^99mTc-Cmpd 48]: bottom
- (CF3)2(C6H3)-NQEQVSPYTLLKG-Pn216 ({(CF3)2(C6H3)}-NQEQVSPYTLLKG-Pn216; also: 99mTc complex) [^99mTc-Cmpd 10]: top
- Z-NQEQVSP(I2-Y)TLLKG-Pn216 [^99mTc-Cmpd 25]: top
- Ac-NQQQVSPYTLLKG-Pn216 (also: 99mTc complex) [^99mTc-Cmpd 15]: middle
- p-EAQIVG-Pn44 [^99mTc-Cmpd 46]: bottom
- Ac-NQEQVSP(D-Y)TLL(D-K)βAla-Pn216 [^99mTc-Cmpd 33]: top
- Z-NQEQVSP(I-Y)TLLKG-Pn216 [^99mTc-Cmpd 24]: middle
- Ac-NQEQVSPYTLLKG-NH2 [^123I-Cmpd 2]: middle
- Ac-NQEQVSPYTLLKG-Pn44 (also: 99mTc complex) [^99mTc-Cmpd 3]: middle
- Pn216-CO(CH2)3CO-NQEQVSPYTLLKG-NH2 ({Pn216-Glutaryl}-NQEQVSPYTLLKG-NH2; also: 99mTc complex) [^99mTc-Cmpd 39]: middle
- Ac-NQEQVSPLTLLKG-Pn216 (also: 99mTc complex) [^99mTc-Cmpd 19]: middle
- Ac-NQEQVG-Pn44 [^99mTc-Cmpd 17]: middle
- Ac-NQEQVSP-Nal(2)-TLLKG-Pn216 [^99mTc-Cmpd 20]: top
- Ac-NQEQVSP(I2-Y)TLLKG-Pn216 [^99mTc-Cmpd 23]: top
- Z-NQEQVSPYTLLKG-Pn216 ({code Z}-NQEQVSPYTLLKG-Pn216; reading uncertain; also: 99mTc complex, printed as Z-NQEQVSPYTLLKG-Pn216) [^99mTc-Cmpd 8]: middle
- Ac-LEFDTQSKNILG-Pn216 (also: 99mTc complex) [^99mTc-Cmpd 47]: middle
- Ac-NQEQVSPYTLLKG-(PEG)10k-Pn216 (Ac-NQEQVSPYTLLKG-{PEG 10k-Pn216}; also: 99mTc complex) [^99mTc-Cmpd 41]: middle
- Adamantoyl-NQEQVSPYTLLKG-Pn216 (Adamantane1carbonyl-NQEQVSPYTLLKG-Pn216; also: 99mTc complex) [^99mTc-Cmpd 11]: top
- Z-NQEQVSPYAAAAG-Pn216 ({code Z}-NQEQVSPYAAAAG-Pn216; reading uncertain; also: 99mTc complex, printed as Z-NQEQVSPYAAAAG-Pn216) [^99mTc-Cmpd 42]: bottom
- Fmoc-NQEQVSPYTLLKG-Pn216 (also: 99mTc complex) [^99mTc-Cmpd 9]: middle
- Ac-NQEQVSPYTLLKG-(PEG)3.4k-Pn44 (Ac-NQEQVSPYTLLKG-{PEG 3.4k-Pn44}; also: 99mTc complex) [^99mTc-Cmpd 40]: bottom
- Ac-NQEAVSPYTLLKG-Pn44 (also: 99mTc complex) [^99mTc-Cmpd 12]: middle
- Cyclo-[NQEQVSPYTLLKG] (cyclo(NQEQVSPYTLLKG); also: 123I label, place not given here) [^123I-Cmpd 44]: bottom

Reference for the values: patent US7049289B1
